This section presents compounds with their documented cytotoxicity at 10 µM values.
test: Toxicity liver stage against HepG2, at 10uM; type: cell-based; set-up: test concentration 10 uM, cell line HepG2-A16-CD81EGFP; settings: human, HepG2-A16-CD81EGFP cells; read-out: INHIBITION
QUANTITY NAME: cytotoxicity at 10 µM (%)

INSERT INTO results (compound, quantity_name, recorded_value) VALUES
  ('c1ccc(CN2C[C@H]3CC[C@@H](C2)N(Cc2nnc(C4CC4)o2)C3)cc1', 'cytotoxicity at 10 µM', -8.42),
  ('CCOCCCNC(=O)c1cc(C(C)C)nc(N2CCCCCC2)n1', 'cytotoxicity at 10 µM', 8.53),
  ('CN(C)C(=O)Cc1nc(CN2CCOC(Cn3cccn3)C2)cs1 (stereo not given)', 'cytotoxicity at 10 µM', 0.743),
  ('CCC(O)CN1CCN(C(=O)c2sccc2OC)CC1 (stereo not given)', 'cytotoxicity at 10 µM', -7.25),
  ('Cc1cnc(C(=O)N2C[C@H]3CN(Cc4cccc(F)c4)C(=O)[C@H]3C2)cn1', 'cytotoxicity at 10 µM', -85.7),
  ('O=C([C@H]1CC[C@@H]2[C@@H](CCN2Cc2ccsc2)O1)N1CCOCC1', 'cytotoxicity at 10 µM', 1.3),
  ('Cc1oc(-c2nc(C#N)c(NC(C)(C)C)o2)cc1S(=O)(=O)N1CCCC1', 'cytotoxicity at 10 µM', -0.699),
  ('CC(C)CN1C(=O)CO[C@@H]2CN(C(=O)C3CCOCC3)C[C@H]21', 'cytotoxicity at 10 µM', -88.1),
  ('COc1cc2c(cc1OC)CN(C(C(=O)O)c1c(C)nn(C)c1C)CC2 (stereo not given)', 'cytotoxicity at 10 µM', -3.14),
  ('C[C@]1(O)CN(Cc2ncc[nH]2)CC[C@@H]1Oc1cccc(F)c1', 'cytotoxicity at 10 µM', -6.8);

---

assay: Toxicity liver stage against HepG2, at 10uM; format: cell-based; set-up: test concentration 10 uM, cell line HepG2-A16-CD81EGFP; conditions: human, HepG2-A16-CD81EGFP cells; read-out: INHIBITION
This section presents molecules with their documented cytotoxicity at 10 µM values.
QUANTITY NAME: cytotoxicity at 10 µM (%)

INSERT INTO results (molecule, recorded_value) VALUES
  ('CC(=O)N1CCC(CCNC(C)Cc2ccc(F)cc2)CC1 (configuration not stated)', -11.4),
  ('CN(C)c1ncc2c(n1)CCCC2NC(=O)C1CC1 (configuration not stated)', 4.07),
  ('Cc1sc(C(=O)NS(C)(=O)=O)cc1-c1ccc(F)cc1', 2.53),
  ('COc1coc(CN2CCCC(CCc3ccc(F)cc3)C2)cc1=O (configuration not stated)', 2.16),
  ('Cn1c(NCC(=O)N2CCCC2)c(C#N)c(=O)n(C)c1=O', 15.4),
  ('CCNc1cc2c(nn1)CCN(C(=O)Cc1noc3ccccc13)C2', -7.42),
  ('Cc1ccccc1C(O)CNS(=O)(=O)Cc1cccc(C#N)c1 (configuration not stated)', -5.43),
  ('CC(C)[C@@H]1CN(C2CCN(Cc3ccccc3)CC2)C[C@H]1NS(C)(=O)=O', -10.7),
  ('COc1ccc2nc(C)c(C(=O)NCCN3CCS(=O)(=O)CC3)cc2c1', -15.2),
  ('Cc1ccc(Cn2cc(C)c(N)n2)cc1', -0.751),
  ('Cc1ncsc1CN1C[C@@H](OCC(=O)N(C)C)[C@H]2OCCC[C@H]21', -139),
  ('CC(c1ccc(Cl)cc1)N1CCN(CCCS(N)(=O)=O)CC1 (configuration not stated)', -1.44);

---

This section presents compounds with their documented cytotoxicity at 10 µM values.
assay: Toxicity liver stage against HepG2, at 10uM; format: cell-based; set-up: test concentration 10 uM, cell line HepG2-A16-CD81EGFP; settings: human, HepG2-A16-CD81EGFP cells; read-out: INHIBITION
QUANTITY NAME: cytotoxicity at 10 µM (%)

INSERT INTO assay_data (compound, recorded_value) VALUES
  ('NC1(c2nc(C(F)(F)F)cc(=O)[nH]2)CCCC1', 19.1),
  ('CCC(CC)C(O)CNC(=O)Nc1cccc(-c2nccn2C)c1 (centres undefined)', -1.39),
  ('CN(Cc1ccccn1)C(CO)c1cccc(Br)c1 (centres undefined)', -6.12),
  ('Cc1noc(C)c1-c1cncc(C2CCCN2Cc2cncnc2)n1 (centres undefined)', 5.25),
  ('CN(CC(=O)NCC(O)c1cccc(F)c1)C(=O)OC(C)(C)C (centres undefined)', 1.2),
  ('NC(=O)C1CCN(C(=O)c2ccn(-c3ccc(F)cc3)n2)CC1', -1.34),
  ('Cc1nc(CN2CCCC(NCCCOc3ccc(F)cc3)C2)no1 (centres undefined)', -7.03),
  ('CNC(=O)c1ccc(=O)n(Cc2csc(N(C)C(C)=O)n2)c1', 0.138),
  ('CCOC(=O)C1CN(C(=O)C2CCOCC2)Cc2ncn(CC)c21 (centres undefined)', 5.65),
  ('CCOc1ccc(-n2ccc3nc(N4CCCC4)ncc3c2=O)cc1', -1.19),
  ('O=c1cc2c(nn1CN1CCC(c3ccccc3)CC1)CCC2', -8.49),
  ('Cc1cc(C)n(CCCN(C)C(=O)[C@H]2CCCO2)n1', -13.2),
  ('Cc1ccc(C(=O)NCc2ccc(N3CCCC(C(N)=O)C3)cc2)o1 (centres undefined)', 0.742),
  ('CN(CC(=O)N1CCCC1)Cc1nc2c(cnn2C)c(=O)[nH]1', -1.38),
  ('CCc1nnc(CN(C)Cc2cccc(C(=O)Nc3cnn(C)c3)c2)o1', -5.54),
  ('O=C(Cc1cccs1)N1CC[C@H]2[C@H]1CCN2Cc1cccnc1', 2.41),
  ('Cc1cccc(CN2C(=O)C[C@H]3[C@@H]2CCN3Cc2nccs2)n1', -2.92),
  ('CN1CCO[C@@H]2CN(S(=O)(=O)c3ccccc3)CC[C@@H]2C1', -0.461),
  ('CNC(=O)C1CCCN1c1nc(C)c2ccccc2n1 (centres undefined)', 10.4),
  ('CC(C)N(C)Cc1cc(=O)n2c(n1)CN(C(=O)c1ccnnc1)CCC2', 2.95),
  ('COc1ccc(C(=O)NC2CCN(c3ncccn3)CC2)cc1F', -17.8),
  ('CN(Cc1cccc(Cl)c1)S(=O)(=O)N1CCOCC1', -8.2),
  ('CCc1cn[nH]c1C1CCCN(C(=O)c2ncoc2C(C)C)C1 (centres undefined)', 1.86),
  ('CN1CCCC1c1cccc(Cc2ccc(F)cc2)n1 (centres undefined)', 4.3);

---

experiment: Toxicity liver stage against HepG2, at 10uM; format: cell-based; parameters: test concentration 10 uM, cell line HepG2-A16-CD81EGFP; settings: human, HepG2-A16-CD81EGFP cells; read-out: INHIBITION
QUANTITY NAME: cytotoxicity at 10 µM (%)

INSERT INTO assay_data (compound, recorded_value) VALUES
  ('c1c(CN2CCCCC2)nc2n1CCN(CC1CC1)C2', -113),
  ('Cc1cc(C)cc(CNc2ccc(C(=O)NC(C)CO)cc2)c1 (stereo unspecified)', -5.48),
  ('N#Cc1c(SCCN2CCOCC2)sc2c(O)cc(O)nc12', -7.5),
  ('CCS(=O)(=O)N1CCc2ccc(NC(=O)NC3CCCCC3)cc21', -4.56),
  ('Cc1nc(CN(C)C(=O)NC(C)c2ccc3c(c2)OCCO3)cs1 (stereo unspecified)', -4.45),
  ('CN(Cc1csc(-c2ccccc2)n1)Cc1ncccc1C(=O)O', 6.03),
  ('COc1ncc(-c2ccc(NC(C)=O)cc2)c(OC)n1', -8.64),
  ('Cn1c(=O)c2c(n3ncnc13)NC(=O)CC2c1ccc(F)cc1 (stereo unspecified)', 5.64),
  ('CN(C)CCNc1cc(-c2ncccc2O)c2cc[nH]c2n1', 7.28),
  ('CN(C)[C@@H]1CN(C(=O)c2cc3ccc(F)cc3[nH]2)C[C@H]1O', 1.05),
  ('Cc1cc(C(=O)N2C[C@@H]3CC[C@H]2CN(Cc2ccccn2)C3)nc(C)n1', 2.36);

---

This section presents compounds with their documented cytotoxicity at 10 µM values.
test: Toxicity liver stage against HepG2, at 10uM; format: cell-based; parameters: test concentration 10 uM, cell line HepG2-A16-CD81EGFP; details: human, HepG2-A16-CD81EGFP cells; read-out: INHIBITION
QUANTITY NAME: cytotoxicity at 10 µM (%)

INSERT INTO measurements (compound, readout_unit, recorded_value) VALUES
  ('CCc1noc(C)c1C(=O)NCc1ccccn1', '%', -1),
  ('Cc1ccc(C2CSCCN2C(=O)c2cccnc2)cc1 (configuration not stated)', '%', -4.11),
  ('Cc1ccc2c(c1)CN(C(=O)c1ccncc1)C(CN(C)C)CO2 (configuration not stated)', '%', -13.5),
  ('CCN1CCC(CNCc2cc(C)ccc2OC)C1 (configuration not stated)', '%', 17.4),
  ('Cc1cnn(CCNCc2ccc(F)cc2Cl)c1', '%', -5.16),
  ('CC(C)(C)OC(=O)N1CCC(NCc2cnn(C(C)(C)C)c2)CC1', '%', 4.85),
  ('CC(=O)N(C)CC(=O)NCC1CCN(c2cc(Cl)ccc2C)C1 (configuration not stated)', '%', -8.77),
  ('CN(Cc1ccc2c(c1)OCO2)Cc1nc(Cc2ccccc2)no1', '%', -2.59),
  ('Nc1nc(CN2CCN(c3nccs3)CC2)cs1', '%', 4.79),
  ('CN(CCC#N)C(=O)Cn1nnnc1C(C)(C)C', '%', -46.3),
  ('CN(C)[C@@H]1CCN(C(=O)Cc2cccs2)[C@H]1Cc1cnn(C)c1', '%', -72.2),
  ('Cc1nccn1C1(C(=O)O)CCN(Cc2ccc3occc3c2)CC1', '%', -1.61);
